B1: glmS ribozyme (parent)
chain: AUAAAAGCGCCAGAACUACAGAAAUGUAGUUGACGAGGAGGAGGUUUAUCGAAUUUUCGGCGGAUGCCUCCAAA

# Variants of: B1
# MEASUREMENT NOTES: self-cleavage kobs at 160 uM GlcN6P; higher = faster cleavage; RNA array
# CONDITION PARAMETERS: with glucosamine-6-phosphate
Variants at the floor of the assay were thinned out.
Given measured self-cleavage kobs at 160 uM GlcN6P, output MET if it is greater than or equal to 0.0004 s⁻¹ and NOT MET if not.

Use these answered entries as a reference point.
SEQUENCE DATA	CLASSIFICATION
AUAAAUGCGCCAGAACUACAGAAAUGUAGUUGACGAGGAGUAGGUUUAUCGAAUUUUCGGCGGAUGCAUCCAAA [A6U G41U C68A]	NOT MET
AUAAAAGCGCCAGAACUACCGAAAUGUAGUUGACGAGGAGGAGGUUUAUCGAAUUUUCGGCGGAUGCCUCCAAA [A20C]	MET

Assess whether reported self-cleavage kobs at 160 uM GlcN6P for AUAAAAGCGCCGGAACUACAGAAAUGUAGUUGACGCGGAGGAGGUUUAUCGAAUUUUCGGCGGAAGCCUCCAAA [A12G A36C U65A] sits at 0.0004 s⁻¹ or higher.
NOT MET

Dear colleague, could you confirm whether AUAAAAGCGCCAGAGCUACAGAAAUGUAGUUGACGAGGAGGAGGUGUAUCGAAUUUUCGGCGGAUACUUCCAAA [A15G U46G G66A C68U] has self-cleavage kobs at 160 uM GlcN6P at or above 0.0004 s⁻¹?
NOT MET
